Entry source: patent US20220227830A1

Molecular target: T1, full-length human GIPR with an N-terminal FLAG tag (human, UniProt P48546 22-466)
T1 sequence (looked up): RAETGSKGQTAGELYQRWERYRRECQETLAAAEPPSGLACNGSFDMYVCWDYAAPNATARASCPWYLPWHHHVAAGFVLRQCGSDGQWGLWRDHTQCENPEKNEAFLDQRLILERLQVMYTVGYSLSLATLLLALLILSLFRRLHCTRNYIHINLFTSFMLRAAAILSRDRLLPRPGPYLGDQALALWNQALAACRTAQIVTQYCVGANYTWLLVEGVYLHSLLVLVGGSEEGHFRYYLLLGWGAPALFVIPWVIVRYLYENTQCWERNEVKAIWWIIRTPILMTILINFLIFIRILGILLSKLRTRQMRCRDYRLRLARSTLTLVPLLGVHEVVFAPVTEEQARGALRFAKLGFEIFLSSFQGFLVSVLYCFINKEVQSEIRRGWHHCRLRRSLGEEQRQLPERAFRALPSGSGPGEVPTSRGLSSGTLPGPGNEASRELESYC
Experiment: cell-based or functional assay
Starred links: 1 amine or outer side, 2 acyl side, 3 side chain; linkers in the order of their positions; H or OH if unused. Non-standard residues stand in square brackets, D forms with d. Groups on a side chain read outwards from the residue. No end group written: not given here. *: point of attachment. C16 diacid = O=C(O)CCCCCCCCCCCCCCC(=O)*; C15 diacid = O=C(O)CCCCCCCCCCCCCC(=O)*; γGlu = O=C(O)[C@H](CCC(=O)[*:2])N[*:1]; NMeY = CN[C@@H](Cc1ccc(O)cc1)C(=O)O; AEEA = NCCOCCOCC(=O)O; Aib = CC(C)(N)C(=O)O
parameter-measured: Human GIPR cAMP, HEK293T EC50 (pM)

binder: [NMeY][Aib]EGTFISDYSIAK([AEEA-γGlu-γGlu-γGlu-C15 diacid])DR[Aib]AQ[Aib]NFVNWLL[Aib]QK-OH (not fully specified) [Compound 38]
units-text: pM
observed-measurement: 0.2

binder: Me-Y[Aib]EGTFISDYSIAKDR[Aib]AQ[Aib]DFVNWLLAQRPSSGAPPPS-OH (not fully specified (residues 1, 14)) [Compound 146]
units-text: pM
observed-measurement: 0.5

binder: YXEGTFISDYSIXXDRXAQXDFVNWLLAQRG (Me-Tyr1; Aib 2,13,17,20; Km14 = Lys(GGGGG-C15 diacid) (Table 3 prints the linker 'GS'); C-term OH) [Compound 142]
units-text: pM
observed-measurement: 0.1

binder: Me-Y[Aib]EGTFISDYSI[Aib]LDR[Aib]AQ[Aib]NFVNWLLAQK([2OEG-γGlu-γGlu-C15 diacid])PSSGAPPPS-NH2 [Compound 21]
units-text: pM
observed-measurement: 0.3

binder: [NMeY][Aib]EGTFISDYSIALDRK([Gly-Gly-Gly-Gly-Gly-γGlu-C15 diacid])AQ[Aib]DFVNWLLAQRPSSGAPPPS-NH2 [Compound 137]
units-text: pM
observed-measurement: 0.2

binder: [NMeY][Aib]EGTFISDYSIAK([G5-γGlu-C15 diacid])DR[Aib]AQ[Aib]DFVNWLLAQSPSSGAPPPS-NH2 [Compound 79]
units-text: pM
observed-measurement: 0.2

binder: [NMeY][Aib]EGTFISDYSIALDR[Aib]AQ[Aib]DFVNWLLAK(2OEGgE‑C15DA)RPSSGAPPPS-NH2 [Compound 109]
units-text: pM
observed-measurement: 0.5

binder: [NMeY][Aib]EGTFISDYSIALDR[Aib]AQ[Aib]NFVNWLLAQK([OEGgEgE-C15 diacid])PSSGAPPPS-NH2 [Compound 70]
units-text: pM
observed-measurement: 0.9

binder: Me-Y[Aib]EGTFISDYSI[Aib]KDR[Aib]AQ[Aib]DFVNWLLAQSG-OH (not fully specified (residues 1, 14)) [Compound 141]
units-text: pM
observed-measurement: 0.3

binder: [NMeY]SEGTFISDYSIAK([2OEG-γGlu-C16 diacid])DRIHQ[Aib]NFVNWLLAQK (not fully specified (N-terminus)) [Compound 7]
units-text: pM
observed-measurement: 1.6

binder: Me-Y[Aib]EGTFISDYSIAKDR[Aib]AQ[Aib]DFVNWLLAQSPSSGAPPPS-NH2 (not fully specified (residues 1, 14)) [Compound 151]
units-text: pM
observed-measurement: 0.4

binder: Y[Aib]EGTFISDYSIAKDR[Aib]AQ[Aib]NFVNWLLAQSPSSGAPPPS-OH (not fully specified (residues 1, 14); also: Me-Tyr methyl position not given here) [Compound 51]
units-text: pM
observed-measurement: 0.3

binder: Me-Y[Aib]EGTFISDYSI[Aib]K([AEEA-AEEA-γGlu-γGlu-C15 diacid])DR[Aib]AQ[Aib]NFVNWLLAQSPSSGAPPPS-NH2 [Compound 139]
units-text: pM
observed-measurement: 0.4
